TGT: T1, biotinylated goat anti-human kappa light chain
T1 construct: positive control of the ELISA
ASSAY DETAILS: ELISA, positive control; also: test concentration or dose not given here
QUANTITY: optical density (OD)
Numeric only. Scale: OD

INSERT INTO assay_data (binder, result_units, measured_value) VALUES
  ('365_F03 (antibody, V domains shown, Group III) VH: EVQLLESGGGLVQPGGSLRLSCAASGFTFDSYSMNWVRQAPGKGLEWVSSINYNGGYTSYADSVKGRFTISRDNSKNTLYLQMNSLRAEDTAVYYCARGANWHDTHLDYWGQGTLVTVSS VL: DIQMTQSPSSLSASVGDRVTITCRASQSILSYLNWYQQKPGKAPKLLIYAATSRASGVPSRFSGSGSGTDFTLTISSLQPEDFATYYCQQSYDNPLTFGGGTKVEIK', 'OD', 3.57);

Please give the measured optical density for this binder: 365_B12 (antibody, V domains shown, Group II) VH: EVQLLESGGGLVQPGGSLRLSCAASGFTFSDYGMHWVRQAPGKGLEWVSGINYNGGYTSYADSVKGRFTISRDNSKNTLYLQMNSLRAEDTAVYYCARAATWHDTHLDYWGQGTLVTVSS VL: DIQMTQSPSSLSASVGDRVTITCRASQSISTYVNWYQQKPGKAPKLLIYAVTSLHSGVPSRFSGSGSGTDFTLTISSLQPEDFATYYCQQSYDNPLTFGGGTKVEIK
3.43
